Where do the numbers come from? From patent US11945812B2.

assay: Plasma protein binding (equilibrium dialysis), human plasma; format: in vitro ADME; conditions: read-out: PPB human fu
VALUE_KIND: fraction unbound
Please reply with the number alone, leaving off any unit.

Endpoint output: fraction unbound of C=CC(=O)N1CCC(Oc2cc(N3CCN(C)C[C@@H]3C)nc(-c3cc(C4(C)CCCc5sc(N)c(C#N)c54)no3)n2)CC1 (stereo partly drawn) [Ic-7] . Value?
0.02

Endpoint output: fraction unbound of C=CC(=O)N1[C@@H](C)CN(c2cc(O[C@@H](C)[C@@H]3CCCN3C)nc(-c3cc([C@@]4(C)CCCc5sc(N)c(C#N)c54)sn3)n2)C[C@@H]1C [Id-4] . Value?
0.014

Endpoint output: fraction unbound of COC/C=C/C(=O)N1CCN(c2cc(O[C@@H](C)[C@@H]3CCCN3C)nc(-c3cc(C4(C)CCCc5sc(N)c(C#N)c54)on3)n2)CC1 (stereo partly drawn) [Ib-15] . Value?
0.041

Endpoint output: fraction unbound of C=CC(=O)N1[C@H](C)CN(c2cc(O[C@@H](C)[C@@H]3CCCN3C)nc(-c3cc([C@@]4(C)CCCc5sc(N)c(C#N)c54)on3)n2)C[C@@H]1C [Ib-3] . Value?
0.018

Endpoint output: fraction unbound of C=CC(=O)N1CCN(c2cc(O[C@@H](C)[C@@H]3CCCN3C)nc(-c3cc([C@@]4(C)CCCc5sc(N)c(C#N)c54)no3)n2)CC12CC2 [Ic-3] . Value?
0.028

Endpoint output: fraction unbound of COC/C=C/C(=O)N1CCN(c2cc(O[C@@H](C)[C@@H]3CCCN3C)nc(-c3cc([C@@]4(C)CCCc5sc(N)c(C#N)c54)on3)n2)[C@H](C)C1 [Ib-14] . Value?
0.016

###

system: ERK phosphorylation in NCI-H358_Cas9_SOS2; test: ERK phosphorylation assay 2 (AlphaLISA SureFire Ultra p-ERK1/2), SOS2 knock-out; type: cell-based; conditions: Homo sapiens, NCI-H358; assay 2 (marked with *); read-out: IC50 H358 pERK
Give pIC50 for every item shown.
Hey, just a heads up that pIC50 is the negative log base 10 of the concentration in molar.

Endpoint output: pIC50 of COC/C=C/C(=O)N1CCN(c2cc(O[C@@H](C)[C@@H]3CCCN3C)nc(-c3cc(C4(C)CCCc5sc(N)c(C#N)c54)on3)n2)CC1 (stereo partly shown) [Ib-15] . Value?
7.49

Endpoint output: pIC50 of C=CC(=O)N1CCN(c2cc(-c3cc([C@@]4(C)CCCc5sc(N)c(C#N)c54)sn3)nc(O[C@@H](C)[C@@H]3CCCN3C)n2)CC1 [Id-3] . Value?
8.96

Endpoint output: pIC50 of C=CC(=O)N1CCC(Oc2cc(N3CCN(C)C[C@@H]3C)nc(-c3cc(C4(C)CCCc5sc(N)c(C#N)c54)no3)n2)CC1 (stereo partly shown) [Ic-7] . Value?
7.25

Endpoint output: pIC50 of C=C(F)C(=O)N1CCC(Oc2cc(O[C@@H](C)[C@@H]3CCCN3C)nc(-c3cc([C@@]4(C)CCCc5sc(N)c(C#N)c54)sn3)n2)CC1 [Id-8] . Value?
7.79

###

assay: Plasma protein binding (equilibrium dialysis), serum 10% FCS in PBS; type: in vitro ADME; conditions: bovine, 10% FCS in PBS (serum), read-out: PPB 10% FCS fu
Give fraction unbound for every item shown.
Please reply with the number alone, leaving off any unit.

Endpoint output: fraction unbound of C=CC(=O)N1CCC(Oc2cc(N3CCN(C)C[C@@H]3C)nc(-c3cc(C4(C)CCCc5sc(N)c(C#N)c54)no3)n2)CC1 (stereo partly drawn) . Value?
0.252

Endpoint output: fraction unbound of C=CC(=O)N1CCN(c2nc(=O)n(-c3c(C)ccnc3C(C)C)c3nc(-c4c(O)cccc4F)c(F)cc23)[C@@H](C)C1 [sotorasib, reference compound] . Value?
0.774

Endpoint output: fraction unbound of C=C(F)C(=O)N1CCC(Oc2cc(N3CCN(C)C[C@@H]3C)nc(-c3cc(C4(C)CCCc5sc(N)c(C#N)c54)on3)n2)CC1 (stereo partly drawn) . Value?
0.114

Endpoint output: fraction unbound of C=C(F)C(=O)N1CCN(c2cc(O[C@@H](C)[C@@H]3CCCN3C)nc(-c3cc([C@@]4(C)CCCc5sc(N)c(C#N)c54)on3)n2)[C@H](C)C1 . Value?
0.063

Endpoint output: fraction unbound of C=CC(=O)N1[C@H](C)CN(c2cc(O[C@@H](C)[C@@H]3CCCN3C)nc(-c3cc([C@@]4(C)CCCc5sc(N)c(C#N)c54)on3)n2)C[C@@H]1C . Value?
0.078

Endpoint output: fraction unbound of C=C(F)C(=O)N1[C@@H](C)CN(c2cc(O[C@@H](C)[C@@H]3CCCN3C)nc(-c3cc([C@@]4(C)CCCc5sc(N)c(C#N)c54)no3)n2)C[C@@H]1C . Value?
0.078

###

Give log10 IC50 for every item shown.
tested on: ERK phosphorylation in NCI-H358_Cas9_SOS2; test: ERK phosphorylation assay 2 (AlphaLISA SureFire Ultra p-ERK1/2), SOS2 knock-out; type: cell-based; conditions: Homo sapiens, NCI-H358; assay 2 (marked with *); read-out: IC50 H358 pERK
Heads up, the numbers here are log10 of IC50 in nM units.

Endpoint output: log10 IC50 of C=CC(=O)N1CCN(c2cc(O[C@@H](C)[C@@H]3CCCN3C)nc(-c3cc([C@@]4(C)CCCc5sc(N)c(C#N)c54)no3)n2)CC12CC2 . Value?
1.09

Endpoint output: log10 IC50 of C=CC(=O)N1CCN(c2cc(O[C@@H](C)[C@@H]3CCCN3C)nc(-c3cc(C4(C)CCCc5sc(N)c(C#N)c54)no3)n2)CC1 (stereo partly drawn) . Value?
0.20

Endpoint output: log10 IC50 of C=C(F)C(=O)N1[C@@H](C)CN(c2cc(O[C@@H](C)[C@@H]3CCCN3C)nc(-c3cc([C@@]4(C)CCCc5sc(N)c(C#N)c54)no3)n2)C[C@@H]1C . Value?
2.13

Endpoint output: log10 IC50 of C=CC(=O)N1CCN(c2cc(O[C@@H](C)[C@@H]3CCCN3C)nc(-c3cc([C@@]4(C)CCCc5sc(N)c(C#N)c54)on3)n2)[C@H](C)C1 . Value?
0.23

Endpoint output: log10 IC50 of COC/C=C/C(=O)N1CCN(c2cc(O[C@@H](C)[C@@H]3CCCN3C)nc(-c3cc([C@@]4(C)CCCc5sc(N)c(C#N)c54)sn3)n2)CC12CC2 . Value?
1.77

Endpoint output: log10 IC50 of COC/C=C/C(=O)N1CCN(c2cc(O[C@@H](C)[C@@H]3CCCN3C)nc(-c3cc([C@@]4(C)CCCc5sc(N)c(C#N)c54)on3)n2)CC12CC2 . Value?
2.99

Endpoint output: log10 IC50 of C=CC(=O)N1[C@@H](C)CN(c2cc(O[C@@H](C)[C@@H]3CCCN3C)nc(-c3cc([C@@]4(C)CCCc5sc(N)c(C#N)c54)no3)n2)C[C@@H]1C . Value?
0.53

Endpoint output: log10 IC50 of C=C(F)C(=O)N1CCN(c2cc(O[C@@H](C)[C@@H]3CCCN3C)nc(-c3cc([C@@]4(C)CCCc5sc(N)c(C#N)c54)on3)n2)[C@H](C)C1 . Value?
1.52

Endpoint output: log10 IC50 of C=CC(=O)N1[C@@H](C)CN(c2cc(O[C@@H](C)[C@@H]3CCCN3C)nc(-c3cc([C@@]4(C)CCCc5sc(N)c(C#N)c54)sn3)n2)C[C@@H]1C . Value?
0.34

Endpoint output: log10 IC50 of C=CC(=O)N1CCN(c2cc(-c3cc(C4(C)CCCc5sc(N)c(C#N)c54)on3)nc(O[C@@H](C)[C@@H]3CCCN3C)n2)CC1 (stereo partly drawn) . Value?
0.49

Endpoint output: log10 IC50 of C=CC(=O)N1CCN(c2cc(O[C@@H](C)[C@@H]3CCCN3C)nc(-c3cc([C@@]4(C)CCCc5sc(N)c(C#N)c54)sn3)n2)CC1 . Value?
-0.15

Endpoint output: log10 IC50 of C=CC(=O)N1CCC(Oc2cc(O[C@@H](C)[C@@H]3CCCN3C)nc(-c3cc([C@@]4(C)CCCc5sc(N)c(C#N)c54)no3)n2)CC1 . Value?
-0.30

###

target: KRAS G12C::SOS1 protein-protein interaction (Homo sapiens, UniProt P01116, C118S/C51S/C80L/G12C); construct: His6 (N); host or cells: E. coli; experiment: KRAS::SOS1 AlphaScreen binding assay; conditions: KRAS G12C::SOS1 AlphaScreen
Sequence (P01116 1-169 isoform P01116-2 G12C/C51S/C80L/C118S): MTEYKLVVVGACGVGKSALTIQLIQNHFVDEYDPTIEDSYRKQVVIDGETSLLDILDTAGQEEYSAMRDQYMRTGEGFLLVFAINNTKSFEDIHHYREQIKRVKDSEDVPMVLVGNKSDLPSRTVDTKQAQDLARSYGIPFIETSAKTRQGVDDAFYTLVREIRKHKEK
VALUE_KIND: pIC50
Hey, just a heads up that pIC50 is the negative log base 10 of the concentration in molar.

Endpoint output: pIC50 of C=CC(=O)N1CCN(c2cc(O[C@@H](C)[C@@H]3CCCN3C)nc(-c3cc(C4(C)CCCc5sc(N)c(C#N)c54)on3)n2)CC1 (stereo partly shown) [Ib-6] . Value?
8.52

Endpoint output: pIC50 of C=CC(=O)N1CCC(Oc2cc(N3CCN(C)C[C@@H]3C)nc(-c3cc(C4(C)CCCc5sc(N)c(C#N)c54)no3)n2)CC1 (stereo partly shown) [Ic-7] . Value?
7.36

Endpoint output: pIC50 of C=CC(=O)N1CCN(c2cc(O[C@@H](C)[C@@H]3CCCN3C)nc(-c3cc([C@@]4(C)CCCc5sc(N)c(C#N)c54)sn3)n2)CC1 [Id-1] . Value?
8.80

Endpoint output: pIC50 of C=C(F)C(=O)N1CCN(c2cc(O[C@@H](C)[C@@H]3CCCN3C)nc(-c3cc([C@@]4(C)CCCc5sc(N)c(C#N)c54)on3)n2)[C@H](C)C1 [Ib-10] . Value?
7.89
